biological target: EPHB1 (UniProt P54762); test: phosphorylation enrichment, bacterial display (enrichment ratio); higher = better substrate or ligand; peptides without Tyr show the background;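 further: 11-residue human phosphosite peptides and single-mutation variants displayed on the E. coli surface, counted by deep sequencing, each peptide's frequency after selection divided by its frequency in the unselected input library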;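 further: frequency after pTyr selection over input frequency; kinase dosed for 20-30% of maximal phosphorylation in three min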
Sequence (P54762 whole entry, looked up): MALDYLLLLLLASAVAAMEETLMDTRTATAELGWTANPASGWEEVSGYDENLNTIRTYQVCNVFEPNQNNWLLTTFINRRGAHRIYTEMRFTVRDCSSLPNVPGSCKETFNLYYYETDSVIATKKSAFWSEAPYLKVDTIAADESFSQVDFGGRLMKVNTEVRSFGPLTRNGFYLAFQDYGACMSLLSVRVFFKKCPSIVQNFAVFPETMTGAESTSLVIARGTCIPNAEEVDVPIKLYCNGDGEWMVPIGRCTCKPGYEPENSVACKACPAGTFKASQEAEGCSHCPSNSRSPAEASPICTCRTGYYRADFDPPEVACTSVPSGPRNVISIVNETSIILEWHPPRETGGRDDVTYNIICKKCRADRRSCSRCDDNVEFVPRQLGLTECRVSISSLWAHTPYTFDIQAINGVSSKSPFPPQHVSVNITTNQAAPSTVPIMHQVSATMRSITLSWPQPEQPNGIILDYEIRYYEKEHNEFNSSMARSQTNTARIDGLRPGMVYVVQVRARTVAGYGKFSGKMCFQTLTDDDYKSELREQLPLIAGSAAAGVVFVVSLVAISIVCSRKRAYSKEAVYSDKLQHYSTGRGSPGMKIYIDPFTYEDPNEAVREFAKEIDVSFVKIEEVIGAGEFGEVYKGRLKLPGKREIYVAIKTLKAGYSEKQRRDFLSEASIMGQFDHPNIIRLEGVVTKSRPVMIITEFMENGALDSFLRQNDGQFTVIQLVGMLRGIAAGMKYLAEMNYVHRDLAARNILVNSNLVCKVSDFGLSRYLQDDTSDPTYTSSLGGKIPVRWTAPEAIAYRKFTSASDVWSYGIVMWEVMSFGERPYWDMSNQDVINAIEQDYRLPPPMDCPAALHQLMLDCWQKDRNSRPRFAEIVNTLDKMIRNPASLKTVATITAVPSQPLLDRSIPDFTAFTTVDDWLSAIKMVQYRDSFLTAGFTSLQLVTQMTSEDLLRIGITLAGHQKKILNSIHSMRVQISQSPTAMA
Exercise: state measured phosphorylation enrichment for each of the sequences provided.
Just the number.

## Input Indicate the recorded phosphorylation enrichment value for this sequence: MTFQNYRQALF [FAM20C_Y279_G280R]
## Output 0.477

## Input Indicate the recorded phosphorylation enrichment value for this sequence: MPAVTYTLAMR [MEGF10_Y895_P897L]
## Output 0.516

## Input Indicate the recorded phosphorylation enrichment value for this sequence: TGFRPYVCPFD [YY1_Y383_D380Y_YF]
## Output 2.1

## Input Indicate the recorded phosphorylation enrichment value for this sequence: RLLRGYDQFAY [HLA-C_Y137_S140F]
## Output 0.422

## Input Indicate the recorded phosphorylation enrichment value for this sequence: NYDLDYDSVQP [MYC_Y16]
## Output 1.19

## Input Indicate the recorded phosphorylation enrichment value for this sequence: DLAAQYTTVGR [SGSH_Y240]
## Output 0.407

## Input Indicate the recorded phosphorylation enrichment value for this sequence: AFLQTYAHEVS [PCDHGA5_Y753_S754A]
## Output 0.455

## Input Indicate the recorded phosphorylation enrichment value for this sequence: CVAARYMDMKG [WFIKKN2_Y93_V96M]
## Output 0.394

## Input Indicate the recorded phosphorylation enrichment value for this sequence: SVMAEYGLFAA [VSX2_Y219_G223A_YF]
## Output 0.484

## Input Indicate the recorded phosphorylation enrichment value for this sequence: AWVARYIFKRL [LPCAT3_Y348]
## Output 0.555

## Input Indicate the recorded phosphorylation enrichment value for this sequence: KTVQDYLKKFY [MMP8_Y36_E38K]
## Output 0.396

## Input Indicate the recorded phosphorylation enrichment value for this sequence: IFRASYFRKGG [ALK_Y1282_YF]
## Output 0.55

## Input Indicate the recorded phosphorylation enrichment value for this sequence: KVMANYMFKAG [MAML2_Y513_YF]
## Output 0.448

## Input Indicate the recorded phosphorylation enrichment value for this sequence: SKNSKYNAGST [PSEN1_Y315_E318G]
## Output 0.307

## Input Indicate the recorded phosphorylation enrichment value for this sequence: ARQEEYSAMRD [KRAS_Y64_G60R]
## Output 0.508

## Input Indicate the recorded phosphorylation enrichment value for this sequence: EHLNRYISDTF [TTLL10_Y446]
## Output 0.44

## Input Indicate the recorded phosphorylation enrichment value for this sequence: EKSREYHRLFE [PIK3R1_Y463_D464H_YF]
## Output 0.407

## Input Indicate the recorded phosphorylation enrichment value for this sequence: FFRRHYPLTTL [TNS4_Y644]
## Output 0.408

## Input Indicate the recorded phosphorylation enrichment value for this sequence: PIDLFYLMDLS [ITGB2_Y131_YF]
## Output 0.737

## Input Indicate the recorded phosphorylation enrichment value for this sequence: TRNRDYDDIDD [TTYH2_Y424]
## Output 0.497
